Parameter melting point: see the listing below.

C=C1COc2c(F)c(F)cc3c(=O)c(C(=O)OCC)cn1c23	258 to 263 °C
CCCc1ccc(N2CCC(O)CC2)nn1	138 to 140 °C
O=C(CCCCCCCCCCN1CCN(c2ccccc2)CC1)Nc1ccc(O)cc1	160 to 162 °C
COc1cc2c(cc1OC)-c1c(OC)c(OC)cc3c1C(C2)N(C)CC3O (single isomer, unassigned; (+))	180 to 182 °C
CC(C)(C)c1ccc2c(c1)[C@H]1Cc3ccccc3[C@@]1(C)N2 (relative stereo)	82 to 84 °C

[in] Look up melting point of `COc1cc2nc(C(C)(C)C)sc2cc1NC(=S)SCCC(=O)O` and report it.
[out] 154 to 156 °C

[in] Complete the entry with melting point for `CC(=O)N(C)c1cc2c(nc(C)n2C)c(O)c1CN(C)C`
[out] 181 to 184 °C

[in] Let me know recorded melting point for `N#Cc1c(Br)c(Br)n(C#N)c1Br` , thanks.
[out] 195 to 198 °C

[in] For the molecule `COC(=O)c1ccc(-c2n[nH]c3ccccc23)o1` , give its reported melting point.
[out] 157 to 159 °C

[in] Specify measured melting point for `Oc1ccc(-c2cc3c(Cl)c(O)ccc3o2)cc1` .
[out] 210 to 214 °C

[in] Please supply the value of reported melting point for the item COCc1[nH]c(=O)c(C#N)c2c1CC(C)CC2 (stereo unspecified)
[out] 205 to 208 °C

[in] Read the entry `O=Cc1ccc(CBr)c2ccccc12` and write its reported melting point.
[out] 115 to 116 °C

[in] Give the measured melting point for Cc1cnc(NC(=O)[C@H]2[C@H](c3ccccc3)C2(C)C)s1 (relative stereo)
[out] 132 to 135 °C

[in] Read the entry CC(C#N)(Cn1c(C(F)(F)F)nc2ccccc21)NC(=O)c1ccc(OC(F)(F)F)cc1 (stereo unspecified) and write its reported melting point.
[out] 194 °C

[in] Answer with reported melting point of `CNC(=O)NS(=O)(=O)c1cc(CCNC(=O)c2cc(Cl)ccc2OC)ccc1-c1ccco1`
[out] 118 to 120 °C

[in] # return recorded melting point for entry CCCCN(CCCC)c1ccc(C=CC=CC=CC2=C(C#N)C(=C(C#N)C#N)OC2(C)C(F)(F)F)c(OC)c1 (stereo unspecified)
[out] 168 to 172 °C

[in] Please report the measured melting point for O=C(c1ccccc1)C(O)CC(Cl)CCCl (stereo unspecified)
[out] 39 to 41 °C

[in] Quick one: give measured melting point for `COc1cc(C)c(Cc2cnoc2)cc1OC`
[out] 68.5 to 70.5 °C

[in] Report melting point for `NC1=NC2(CN(C(=O)c3cccs3)C2)Nc2cccc(F)c21`
[out] 214 to 215 °C

[in] Item `O=C1c2ccccc2C(=O)N1Oc1ccc([N+](=O)[O-])cc1C(F)(F)F` : provide melting point
[out] 190 °C

[in] Fill in reported melting point for this entry: `N#CC(C#N)=C1N(CCCN2CCCCC2)CCN1C1CCN(C(=O)C2CC2)CC1`
[out] 131 to 133 °C

----------
Entries annotated with measured melting point

CCCNC(=O)Nc1ccc2c(c1)NC(=O)C2(C)C	223 to 225 °C

[in] Note melting point for the molecule shown: `CNc1ccccc1C(=O)COC(=O)c1ccccc1`
[out] 85 to 87 °C

[in] Please give measured melting point of the following entry: `CC1=NN(c2ccc3c(=O)n(CC(C)C)c(CN)c(-c4ccccc4)c3c2)CO1`
[out] 179 to 181 °C

[in] // Input: CC(CC(=O)c1ccc(Br)cc1)C(=O)N1CCCC1C(=O)O (configuration not stated) . Output its melting point only.
[out] 136 to 138 °C

[in] Give a short answer stating reported melting point for `ON=C1CCn2c1cc1ccccc12` .
[out] > 220 °C

[in] Complete the entry with melting point for `COCc1nc2c(N)nc3cc(CCS(C)(=O)=O)ccc3c2n1CC(C)(C)O`
[out] 210 to 212 °C

[in] For the molecule `O=C(C(=O)c1cccc(Br)c1)c1ccccc1` , give its measured melting point value.
[out] 78 to 82 °C

[in] Provide one value: measured melting point of `CCCCCCCCCCCCCCCCNc1ccc(C(=O)NCCS(=O)(=O)O)cc1`
[out] 190 to 220 °C

[in] Supply recorded melting point for `Cc1ccc(C(=O)COc2ccc(Br)cc2CO)cc1` here.
[out] 125 to 127 °C

[in] Give melting point for `CCC(C)(C)c1cc(-c2cccc(C=C3SC(N4CCCC4)=NC3=O)c2)ccc1O`
[out] 282 to 283 °C

[in] Using known records, supply melting point for COc1ccc(C2=CC(C3CCN(c4ncnc5c4cnn5C)CC3)C(=O)C3CC=CCC23)cc1OC (configuration not stated)
[out] 193 to 194 °C

[in] Give the measured melting point for `O=c1c2cc([N+](=O)[O-])ccc2nc2n1CS(=O)(=O)N2`
[out] > 300 °C
